Test system: HepG2 cells
Test: MTT cytotoxicity assay, HepG2
Type: cell-based
Conditions: Homo sapiens, 72 h
property.measured: pIC50
Give only the number. pIC50 is defined as minus log10 of concentration in molar units.

Observe how each entry below is paired with its result.
molecule	experimental.system	pIC50
COc1cc2c(Oc3ccc(NC(=O)c4nn(-c5ccc(Cl)c(C(F)(F)F)c5)ccc4=O)cc3F)ccnc2cc1OCCCN1CCCCC1	HepG2 cells	5.74
COc1cc2c(Oc3ccc(NC(=O)c4nn(-c5ccc(Cl)cc5)ccc4=O)cc3F)ccnc2cc1OCCCN1CCCCC1	HepG2 cells	6.16
COc1ccc(-n2ccc(=O)c(C(=O)Nc3ccc(Oc4ccnc5cc(OCCCN6CCC(C)CC6)c(OC)cc45)c(F)c3)n2)cc1	HepG2 cells	8.10

Query :: Param item = `COc1cc2c(Oc3ccc(NC(=O)c4nn(-c5ccc(F)c(Cl)c5)ccc4=O)cc3F)ccnc2cc1OCCCN1CCN(C)CC1` ; retrieve measured pIC50.
Result :: 5.61

Query :: And what about the molecule `COc1cc2c(Oc3ccc(NC(=O)c4nn(-c5ccc(Br)cc5F)ccc4=O)cc3F)ccnc2cc1OCCCN1CCN(C)CC1` ?
Result :: 5.19

Query :: Okay, and `COc1cc2c(Oc3ccc(NC(=O)c4nn(-c5ccccc5)ccc4=O)cc3F)ccnc2cc1OCCCN1CCCCC1` ?
Result :: 6.74

Query :: Now consider COc1cc2c(Oc3ccc(NC(=O)C4(C(=O)Nc5ccc(F)cc5)CC4)cc3F)ccnc2cc1OCCCN1CCOCC1 [Foretinib, reference compound] .
Result :: 6.08

Query :: Please answer likewise for `COc1ccc(-n2ccc(=O)c(C(=O)Nc3ccc(Oc4ccnc5cc(OCCCN6CCCCC6)c(OC)cc45)c(F)c3)n2)cc1`
Result :: 6.20

Query :: Now give it for `COc1cc2c(Oc3ccc(NC(=O)c4nn(-c5ccc(Cl)c(C(F)(F)F)c5)ccc4=O)cc3F)ccnc2cc1OCCCN1CCC(C)CC1` too.
Result :: 6.19

Query :: Also `COc1cc2c(Oc3ccc(NC(=O)c4nn(-c5ccccc5)ccc4=O)cc3F)ccnc2cc1OCCCN1CCC(C)CC1` , if possible.
Result :: 5.33

Query :: Please answer likewise for `COc1cc2c(Oc3ccc(NC(=O)c4nn(-c5ccc(F)cc5)ccc4=O)cc3F)ccnc2cc1OCCCN1CCC(C)CC1`
Result :: 4.33

Query :: Same lookup for `COc1cc2c(Oc3ccc(NC(=O)c4nn(-c5ccc(F)cc5)ccc4=O)cc3F)ccnc2cc1OCCCN1CCOCC1` , please.
Result :: 5.65

Query :: Try this molecule next: `COc1cc2c(Oc3ccc(NC(=O)c4nn(-c5ccccc5)ccc4=O)cc3F)ccnc2cc1OCCCN1CCOCC1`
Result :: 5.64

---

Biological target: c-Met kinase (Homo sapiens, UniProt P08581)
Sequence (P08581 25-1390): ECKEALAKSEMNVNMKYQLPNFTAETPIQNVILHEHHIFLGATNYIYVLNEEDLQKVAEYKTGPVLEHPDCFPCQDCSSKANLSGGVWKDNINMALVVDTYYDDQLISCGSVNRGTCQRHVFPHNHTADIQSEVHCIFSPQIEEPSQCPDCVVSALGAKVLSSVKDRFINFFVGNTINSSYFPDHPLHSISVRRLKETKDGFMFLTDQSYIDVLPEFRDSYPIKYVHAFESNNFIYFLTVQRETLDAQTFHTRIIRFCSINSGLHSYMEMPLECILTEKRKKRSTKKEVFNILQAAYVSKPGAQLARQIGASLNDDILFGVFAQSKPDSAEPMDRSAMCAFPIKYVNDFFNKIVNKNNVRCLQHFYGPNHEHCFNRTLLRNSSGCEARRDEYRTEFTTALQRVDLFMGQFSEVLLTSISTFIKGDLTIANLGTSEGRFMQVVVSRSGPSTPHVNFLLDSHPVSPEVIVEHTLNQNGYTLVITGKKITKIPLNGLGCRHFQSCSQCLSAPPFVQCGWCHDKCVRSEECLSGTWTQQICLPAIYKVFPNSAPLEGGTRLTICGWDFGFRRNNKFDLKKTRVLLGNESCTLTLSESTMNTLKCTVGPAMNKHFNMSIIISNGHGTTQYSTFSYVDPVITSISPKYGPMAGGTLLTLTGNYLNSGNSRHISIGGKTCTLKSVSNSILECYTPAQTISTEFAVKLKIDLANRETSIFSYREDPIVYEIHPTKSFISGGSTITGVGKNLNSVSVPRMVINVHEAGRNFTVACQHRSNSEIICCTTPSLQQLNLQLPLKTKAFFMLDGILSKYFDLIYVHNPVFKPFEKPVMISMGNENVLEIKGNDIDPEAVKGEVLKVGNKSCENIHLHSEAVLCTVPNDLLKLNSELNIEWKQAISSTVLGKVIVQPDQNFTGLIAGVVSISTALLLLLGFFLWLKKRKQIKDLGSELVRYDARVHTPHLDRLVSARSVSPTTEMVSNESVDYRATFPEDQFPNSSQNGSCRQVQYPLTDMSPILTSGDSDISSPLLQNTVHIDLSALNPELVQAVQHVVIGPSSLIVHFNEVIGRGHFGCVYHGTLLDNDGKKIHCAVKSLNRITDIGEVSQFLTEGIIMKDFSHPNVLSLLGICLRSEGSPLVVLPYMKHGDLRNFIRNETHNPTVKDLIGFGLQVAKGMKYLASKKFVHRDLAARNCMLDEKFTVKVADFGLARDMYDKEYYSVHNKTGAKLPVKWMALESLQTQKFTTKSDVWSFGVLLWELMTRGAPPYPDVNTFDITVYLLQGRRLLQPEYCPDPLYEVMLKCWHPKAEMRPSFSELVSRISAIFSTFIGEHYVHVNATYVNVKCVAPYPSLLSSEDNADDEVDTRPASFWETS
pIC50: −log10 of the molar value.
Is pIC50 at least 8? Then TRUE. If not, FALSE.

Example entries and their recorded answers appear below.
COc1cc2c(Oc3ccc(NC(=O)c4nn(-c5ccc(F)c(Cl)c5)ccc4=O)cc3F)ccnc2cc1OCCCN1CCN(C)CC1 TRUE
COc1cc2c(Oc3ccc(NC(=O)c4nn(-c5ccc(Cl)cc5)ccc4=O)cc3F)ccnc2cc1OCCCN1CCCCC1 FALSE

Query :: Confirm if pIC50 reported for the compound `COc1cc2c(Oc3ccc(NC(=O)c4nn(-c5ccc(Br)cc5F)ccc4=O)cc3F)ccnc2cc1OCCCN1CCOCC1` is 8 or above.
Result :: FALSE

Query :: One more compound: `COc1cc2c(Oc3ccc(NC(=O)c4nn(-c5ccc(F)cc5)ccc4=O)cc3F)ccnc2cc1OCCCN1CCC(C)CC1`
Result :: FALSE

Query :: Record: `COc1cc2c(Oc3ccc(NC(=O)c4nn(-c5ccc(F)c(Cl)c5)ccc4=O)cc3F)ccnc2cc1OCCCN1CCCCC1`
Result :: TRUE

Query :: Request: `COc1ccc(-n2ccc(=O)c(C(=O)Nc3ccc(Oc4ccnc5cc(OCCCN6CCOCC6)c(OC)cc45)c(F)c3)n2)cc1`
Result :: FALSE
